For each of the molecules below, state its half-life.
Assay: Half life in simulated gastric fluid at pH 1.2
Assay type: ADME

## Input Please give the measured half-life for this molecule: CCN1CC(C)(C)OC(=O)C1CC(=O)NCc1cccc(-c2ccccc2)c1 (configuration not stated)
## Output > 4 h

## Input What value of half-life has been recorded for this entry: CCN1CC(C)(C)OC(=O)C1CC(=O)Nc1ccc(C(C)C)cc1 (configuration not stated)
## Output > 4 h

###

Test: Half life in simulated intestinal fluid […]
Assay type: ADME
metric: half-life

## Input Form field: reported half-life of CCN1CC(C)(C)OC(=O)C1CC(=O)NCc1cccc(-c2ccccc2)c1 (configuration not stated)
## Output 3.72 h

## Input Looking for the measured half-life of CCN1CC(C)(C)OC(=O)C1CC(=O)Nc1ccc(C(C)C)cc1 (configuration not stated) , can you help?
## Output > 4 h

###

Assignment: determine reported inhibition at 10 µM for the given molecules.
Molecular target: hERG (KCNH2) (Homo sapiens)
Sequence (Q12809 whole entry): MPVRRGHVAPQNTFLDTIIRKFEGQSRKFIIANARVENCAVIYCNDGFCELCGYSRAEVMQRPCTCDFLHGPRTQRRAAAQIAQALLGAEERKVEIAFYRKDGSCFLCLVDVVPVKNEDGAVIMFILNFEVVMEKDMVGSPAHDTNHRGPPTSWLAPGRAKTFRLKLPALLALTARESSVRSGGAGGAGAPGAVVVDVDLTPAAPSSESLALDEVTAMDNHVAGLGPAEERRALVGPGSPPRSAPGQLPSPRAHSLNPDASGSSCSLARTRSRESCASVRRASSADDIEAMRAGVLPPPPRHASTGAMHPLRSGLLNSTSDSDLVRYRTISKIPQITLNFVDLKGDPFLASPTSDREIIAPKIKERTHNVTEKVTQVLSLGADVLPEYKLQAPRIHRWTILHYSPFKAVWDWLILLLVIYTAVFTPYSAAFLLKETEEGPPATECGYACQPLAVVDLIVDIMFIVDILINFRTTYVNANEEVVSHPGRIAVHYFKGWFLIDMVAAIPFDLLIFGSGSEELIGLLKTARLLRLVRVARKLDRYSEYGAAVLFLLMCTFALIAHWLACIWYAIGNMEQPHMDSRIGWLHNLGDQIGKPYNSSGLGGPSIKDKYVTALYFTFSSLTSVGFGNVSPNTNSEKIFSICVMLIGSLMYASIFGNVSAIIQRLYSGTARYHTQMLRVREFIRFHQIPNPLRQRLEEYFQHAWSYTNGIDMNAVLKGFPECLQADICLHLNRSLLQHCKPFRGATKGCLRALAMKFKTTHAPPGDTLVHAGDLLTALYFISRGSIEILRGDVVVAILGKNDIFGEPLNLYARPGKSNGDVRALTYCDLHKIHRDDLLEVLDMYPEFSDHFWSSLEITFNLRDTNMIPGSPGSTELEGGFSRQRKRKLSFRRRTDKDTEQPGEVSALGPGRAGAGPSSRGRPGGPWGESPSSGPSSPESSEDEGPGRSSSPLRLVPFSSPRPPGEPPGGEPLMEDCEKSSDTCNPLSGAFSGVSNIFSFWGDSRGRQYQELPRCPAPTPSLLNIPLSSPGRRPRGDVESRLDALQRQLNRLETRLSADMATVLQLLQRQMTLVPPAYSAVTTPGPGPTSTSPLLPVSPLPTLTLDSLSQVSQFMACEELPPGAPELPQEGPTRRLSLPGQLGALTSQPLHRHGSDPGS
Experiment: Inhibition of human ERG channel at 10 uM
Express it in %; write the number only.

## Input What does the data say about its inhibition at 10 µM? Entry: CCN1CC(C)(C)OC(=O)C1CC(=O)NCc1cccc(-c2ccccc2)c1 (configuration not stated)
## Output 25.5

## Input Please look up its inhibition at 10 µM: CCN1CC(C)(C)OC(=O)C1CC(=O)Nc1ccc(C(C)C)cc1 (configuration not stated)
## Output 11

###

Test: Half life in human plasma
Format: ADME, cell-free
Provide the recorded half-life for the entries that follow.
Write the value in min as a bare number.

## Input Data request, read-out half-life, for CCN1C[C@@H](C)OC(=O)C1CC(=O)Nc1ccc(C(C)C)cc1 (some centres not stated)
## Output 55

## Input May I ask what half-life has been recorded for CCN1C[C@H](c2ccccc2)OC(=O)C1CC(=O)Nc1ccc(C(C)C)cc1 (some centres not stated) ?
## Output 49

## Input Record request: half-life value, item CCN1C[C@H](C)OC(=O)C1CC(=O)Nc1ccc(C(C)C)cc1 (some centres not stated)
## Output 57

## Input For the compound CCN1CCOC(=O)C1CC(=O)Nc1ccc(C(C)C)cc1 (configuration not stated) , what half-life is on record?
## Output 22

## Input So what does the record say about half-life for CCN1C[C@@H](c2ccccc2)OC(=O)C1CC(=O)Nc1ccc(C(C)C)cc1 (some centres not stated) ?
## Output 31

###

Test: Half life in mouse plasma
Format: ADME, cell-free
metric: half-life (min)
Use min as the unit, but write only the number.

## Input Look at this compound and give its reported half-life. CCN1CCOC(=O)C1CC(=O)Nc1ccc(C(C)C)cc1 (stereo unspecified)
## Output 32

###

Exercise: for every item that follows, state its recorded IC50.
Test system: Microsporum canis
Assay: Fungicidal activity against Microsporum canis B68128
Type: functional
Give the value in µg/mL but do not write µg/mL after it.

## Input I have this compound here, CCN1CC(C)(C)OC(=O)C1CC(=O)NCc1cccc(-c2ccccc2)c1 (stereo not given) , and I need its recorded IC50.
## Output 2.4

## Input For the compound CCN1CC(C)(C)OC(=O)C1CC(=O)NCc1ccc(Cl)cc1 (stereo not given) , what IC50 is on record?
## Output 2

## Input Would you mind telling me what IC50 value was observed for CCN1CC(C)(C)OC(=O)C1CC(=O)Nc1ccc2c(ccn2C)c1 (stereo not given) ?
## Output 6.2

## Input State the recorded IC50 for this entry: CCN1CC(C)(C)OC(=O)C1CC(=O)Nc1ccc(C(C)C)cc1 (stereo not given)
## Output 6.6

## Input Would you kindly share the measured IC50 for Clc1ccc(COC(Cn2ccnc2)c2ccc(Cl)cc2Cl)c(Cl)c1 (stereo not given) [MICONAZOLE] ?
## Output 0.02
